I'd be grateful if you could share measured Ki for these entries.
target: Calpain-2 catalytic subunit (Sus scrofa); assay: Inhibitory activity against Calpain-II receptor in porcine kidney
Square brackets hold non-standard residues; d marks the D form. Peptide text beside a SMILES is read from it. * marks the point of attachment. Bn = c1ccc(C*)cc1; Ms = CS(=O)(=O)*

Name the reported Ki value associated with the molecule "CS(=O)(=O)N[C@H](COCc1ccccc1)C(=O)N[C@H](C=O)CCCCNS(=O)(=O)c1ccccc1"
17 nM

Name the reported Ki value associated with the molecule CC(OCc1ccccc1)[C@@H](NS(C)(=O)=O)C(=O)N[C@H](C=O)Cc1ccccc1 (some centres undefined)
7 nM

Name the reported Ki value associated with the molecule CS(=O)(=O)N[C@H](COCc1ccccc1)C(=O)N[C@H](C=O)Cc1ccc(OCc2ccccc2)cc1 (Ms-[dS](Bn)-Tyr(Bn)-aldehyde)
5 nM

Name the reported Ki value associated with the molecule CS(=O)(=O)N[C@H](CSCc1ccccc1)C(=O)N[C@H](C=O)Cc1ccccc1 (Ms-[dC](Bn)-Phe-aldehyde)
7 nM

Measured values drawn from BindingDB's records for doi:10.1021/jm980035y for this set.
